test system: CCRIS mutagenicity, Ames/micronucleus/aberration tests; test: CCRIS mutagenicity studies; conditions: Test System: AMES SALMONELLA TYPHIMURIUM; Strain/Indicator: TA98; Metabolic Activation: RAT, LIVER, S-9, AROCLOR 1254; Method: STANDARD PLATE
Active and inactive are the calls of the source. How the calls were made is not given here.
Reply using exactly one outcome from active, inactive

Check out these entries, answers already filled in.
[
  {
    "Compound": "COC1=CC(=O)c2nc(C)c3c([nH]c4ccccc43)c2C1=O",
    "Label Value": "active"
  },
  {
    "Compound": "Cc1ccc(S(=O)(=O)n2ncc(Cl)c(Cl)c2=O)cc1",
    "Label Value": "inactive"
  },
  {
    "Compound": "CC(=O)Nc1ccc(/C=C/C(=O)c2ccccc2)cc1",
    "Label Value": "active"
  },
  {
    "Compound": "COC(=O)Nc1nc2ccc(Sc3ccccc3)cc2[nH]1",
    "Label Value": "inactive"
  },
  {
    "Compound": "Cc1nn(C)c(NC(=O)CNCCCN2CCCCC2C)c1C(=O)c1ccccc1F (configuration not stated)",
    "Label Value": "inactive"
  },
  {
    "Compound": "CC(=O)c1ccc(Cl)c(Cl)c1Cl",
    "Label Value": "inactive"
  },
  {
    "Compound": "CN1CCN(C2=Nc3ccccc3Oc3ccc(Cl)cc32)CC1",
    "Label Value": "inactive"
  },
  {
    "Compound": "O=C1C[C@H](O)[C@@H]2c3c(ccc(O)c31)-c1ccc(O)c3c1[C@@]2(O)CCC3=O",
    "Label Value": "active"
  }
]

Exercise: Could you kindly confirm the outcome this assay logged for O=c1c(Cl)c(Cl)cnn1S(=O)(=O)c1ccc(Cl)cc1 ?
Key: inactive

Exercise: Each compound tested received a call. Report the one for c1ccc2nccnc2c1 .
Key: inactive

Exercise: Short answer needed: outcome of this test for N=c1c2ncn(C(c3ccccc3)(c3ccccc3)c3ccccc3)c2ncn1O ?
Key: active

Exercise: Fill in: this test's call for c1ccc2c(c1)ccc1ccccc12 is ___
Key: inactive

###

test system: CCRIS mutagenicity, Ames/micronucleus/aberration tests; assay: CCRIS mutagenicity studies; details: Test System: AMES SALMONELLA TYPHIMURIUM; Strain/Indicator: TA1535; Metabolic Activation: RAT, LIVER, S-9, AROCLOR 1254 (10%); Method: PREINCUBATION
The source made the active and inactive calls. How the calls were made is not given here.
Please answer using one outcome listed in TRUE = active, FALSE = inactive

[
  {
    "Compound": "Cc1ccc(Cl)cc1",
    "Label Value": "FALSE"
  }
]

Exercise: Could you check what this test reported for O.[Al+3].[Al+3].[Na+].[Na+].[O-2].[O-2].[O-2].[O-2].[O-2].[O-2].[Si+4] ?
Key: FALSE

Exercise: // return assay outcome for CC(C)CCC(C)Nc1ccc(NC(C)CCC(C)C)cc1 (centres undefined)
Key: FALSE

###

tested on: CCRIS mutagenicity, Ames/micronucleus/aberration tests; assay: CCRIS mutagenicity studies; settings: Test System: AMES SALMONELLA TYPHIMURIUM; Strain/Indicator: TA100; Metabolic Activation: RAT, LIVER, S-9, AROCLOR 1254 (2%); Method: STANDARD PLATE
Activity calls are given as the source filed them. How the calls were made is not given here.
Select the correct class. Options are YES = active, NO = inactive and nothing else.

Example entries begin here.
[
  {
    "Cpd Smiles": "Nc1cc2ccc3cccc4ccc(c1)c2c34",
    "Label Value": "YES"
  },
  {
    "Cpd Smiles": "Nc1cccc2cc3ccccc3cc12",
    "Label Value": "NO"
  },
  {
    "Cpd Smiles": "Nc1ccc2ccc3ccccc3c2c1",
    "Label Value": "YES"
  }
]

Exercise: Write down the call the test reported for this molecule. Item: Nc1ccc2c(c1)-c1cccc3cccc-2c13
Key: YES
